protocol_summary: Selectivity index, ratio of IC50 for COX1 to IC50 COX2
Here the recorded Ratio IC50 is given for each entry.
# respond with the number and nothing more

Example compounds with recorded Ratio IC50:
input_smiles	Ratio IC50
CS(=O)(=O)c1ccc(-n2cc(-c3ccc(F)cc3)nn2)cc1	59
CN(C)c1ccc(-c2cnnn2-c2ccc(S(C)(=O)=O)cc2)cc1	2.3
Cc1ccc(-c2cn(-c3ccc(S(C)(=O)=O)cc3)nn2)cc1	18
CS(=O)(=O)c1ccc(-n2cc(-c3ccc(Cl)cc3)nn2)cc1	64
Cc1ccc(-c2cnnn2-c2ccc(S(C)(=O)=O)cc2)cc1	6.5

Determine its reported Ratio IC50: "COc1ccc(-c2cnnn2-c2ccc(S(C)(=O)=O)cc2)cc1"
4.9

---

Each entry below carries its measured pIC50, system: Prostaglandin G/H synthase 1 (Homo sapiens).
Sequence (P23219 whole entry): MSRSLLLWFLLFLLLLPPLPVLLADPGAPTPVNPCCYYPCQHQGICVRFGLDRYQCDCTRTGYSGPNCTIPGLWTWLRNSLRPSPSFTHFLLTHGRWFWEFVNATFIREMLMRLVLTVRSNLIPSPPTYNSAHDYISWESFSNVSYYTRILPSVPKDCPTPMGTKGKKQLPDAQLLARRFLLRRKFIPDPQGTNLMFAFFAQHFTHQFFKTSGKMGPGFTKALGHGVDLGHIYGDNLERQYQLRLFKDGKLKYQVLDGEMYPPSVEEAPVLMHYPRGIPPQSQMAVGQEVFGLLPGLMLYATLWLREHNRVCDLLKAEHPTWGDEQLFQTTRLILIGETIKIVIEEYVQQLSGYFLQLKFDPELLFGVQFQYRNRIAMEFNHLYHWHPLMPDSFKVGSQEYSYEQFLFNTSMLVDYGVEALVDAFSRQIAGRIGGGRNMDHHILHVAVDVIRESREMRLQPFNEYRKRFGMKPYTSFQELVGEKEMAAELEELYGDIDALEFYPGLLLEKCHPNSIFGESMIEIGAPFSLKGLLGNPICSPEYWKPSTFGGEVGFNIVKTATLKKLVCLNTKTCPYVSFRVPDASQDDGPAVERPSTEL
Scale note: pIC50 = -log10(concentration in M).

Example molecules with recorded pIC50:
input_smiles	reported_value
CS(=O)(=O)c1ccc(-n2cc(-c3ccccc3)nn2)cc1	4.68
COc1ccc(-c2cn(-c3ccc(S(C)(=O)=O)cc3)nn2)cc1	5.00
CS(=O)(=O)c1ccc(-n2nncc2-c2ccccc2)cc1	6.09

As a next step, examine the molecule that follows.
Write pIC50 of "CS(=O)(=O)c1ccc(-n2cc(-c3ccc(Cl)cc3)nn2)cc1" ; system used: Prostaglandin G/H synthase 1 (Homo sapiens)
4.91

---

protocol_summary: Selectivity index, ratio of IC50 for COX1 to IC50 COX2
parameter: Ratio IC50
# respond with the number and nothing more

Determine its reported Ratio IC50: "CS(=O)(=O)c1ccc(-n2nncc2-c2ccc(Cl)cc2)cc1"
17.5

Determine its reported Ratio IC50: "CS(=O)(=O)c1ccc(-n2nncc2-c2ccc(F)cc2)cc1"
30.3

Determine its reported Ratio IC50: "CS(=O)(=O)c1ccc(-n2cc(-c3ccccc3)nn2)cc1"
139

Determine its reported Ratio IC50: "CS(=O)(=O)c1ccc(-n2nncc2-c2ccccc2)cc1"
7.5

Determine its reported Ratio IC50: "COc1ccc(-c2cn(-c3ccc(S(C)(=O)=O)cc3)nn2)cc1"
4

---

target_or_test_system: Prostaglandin G/H synthase 2 (Homo sapiens, UniProt P35354)
Sequence (P35354 whole entry): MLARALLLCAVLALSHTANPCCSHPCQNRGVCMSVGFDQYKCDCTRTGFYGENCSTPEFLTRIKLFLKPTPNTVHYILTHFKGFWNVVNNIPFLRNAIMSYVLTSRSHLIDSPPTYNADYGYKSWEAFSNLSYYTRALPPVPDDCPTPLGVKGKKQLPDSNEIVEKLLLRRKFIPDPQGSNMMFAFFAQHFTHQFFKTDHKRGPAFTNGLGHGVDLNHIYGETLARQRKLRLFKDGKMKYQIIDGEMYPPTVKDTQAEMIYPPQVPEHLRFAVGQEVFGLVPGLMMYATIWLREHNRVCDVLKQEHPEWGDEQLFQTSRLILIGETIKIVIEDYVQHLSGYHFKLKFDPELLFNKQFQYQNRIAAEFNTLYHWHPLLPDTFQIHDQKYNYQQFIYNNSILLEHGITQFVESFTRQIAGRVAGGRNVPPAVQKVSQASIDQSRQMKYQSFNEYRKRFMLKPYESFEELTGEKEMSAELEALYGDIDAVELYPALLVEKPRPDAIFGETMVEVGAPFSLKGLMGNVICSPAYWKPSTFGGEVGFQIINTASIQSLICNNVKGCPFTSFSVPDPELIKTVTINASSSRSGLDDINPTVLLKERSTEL
pIC50: −log10 of the molar value.
Note to self: values exactly at 7 are true. So pIC50 at or above 7 is true, below is false.

Determine whether this compound has pIC50 no lower than 7: "CS(=O)(=O)c1ccc(-n2nncc2-c2ccc(F)cc2)cc1"
true

Determine whether this compound has pIC50 no lower than 7: "COc1ccc(-c2cn(-c3ccc(S(C)(=O)=O)cc3)nn2)cc1"
false

Determine whether this compound has pIC50 no lower than 7: "CS(=O)(=O)c1ccc(-n2cc(-c3ccc(Cl)cc3)nn2)cc1"
false

Determine whether this compound has pIC50 no lower than 7: "COc1ccc(-c2cnnn2-c2ccc(S(C)(=O)=O)cc2)cc1"
false
